Biological target: human Sortilin (human, UniProt Q99523 78-830); further: test concentration or dose not given here
Test: cell-based or functional assay
measurement.label: Percent reduction of Sortilin levels in U251 cells (%)

INSERT INTO measurements (binder, quantitative_result) VALUES
  ('anti-Sortilin antibody S-18 (antibody, V domains shown) VH: QVQLVQSGAEVKKPGSSVKVSCKASGGTFSSYAISWVRQAPGQGLEWMGSIIPIFGTANYAQKFQGRVTITADESTSTAYMELSSLRSEDTAVYYCARDKHGRRGYYYYMDVWGKGTTVTVSS VL: EIVLTQSPATLSLSPGERATLSCRASQSVSSYLAWYQQKPGQAPRLLIYDASNRATGIPARFSGSGSGTDFTLTISSLEPEDFAVYYCQQGANAPPRTFGGGTKVEIK', 85.7);
